This collection of values is drawn from PubChem BioAssay AID2784.

# experimental-system: Apelin receptor (Homo sapiens) (UniProt P35414)
# Sequence (P35414 whole entry, looked up): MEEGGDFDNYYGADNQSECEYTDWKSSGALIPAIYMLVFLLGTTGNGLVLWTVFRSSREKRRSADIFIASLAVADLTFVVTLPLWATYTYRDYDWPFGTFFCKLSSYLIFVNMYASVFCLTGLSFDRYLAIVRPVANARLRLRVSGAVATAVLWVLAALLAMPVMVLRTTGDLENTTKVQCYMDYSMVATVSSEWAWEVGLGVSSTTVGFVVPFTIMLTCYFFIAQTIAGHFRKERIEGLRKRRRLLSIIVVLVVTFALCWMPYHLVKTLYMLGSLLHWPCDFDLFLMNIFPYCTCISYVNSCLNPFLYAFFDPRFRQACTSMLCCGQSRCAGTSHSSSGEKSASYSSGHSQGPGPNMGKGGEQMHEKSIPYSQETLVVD
# test-summary: apelin receptor inhibitors, concentration-response – cell-based, luminescence, uHTS hits, dose response (AID 2784)
# particulars: APJ beta-arrestin recruitment, antagonist mode
Calls of active or inactive are those of the source. How the calls were made is not given here.
Outcome codes: active, inactive

| compound | class-assignment |
| --- | --- |
| CC1=Nc2ccccc2/C1=C/c1sc(=N)n(-c2nccs2)c1O | inactive |
| O=[N+]([O-])c1ccc(O)c(/C=N/Nc2ccc(Cl)nn2)c1 | active |
| Cc1ccc(NS(=O)(=O)c2cc([N+](=O)[O-])ccc2N/N=C/c2sc(N3CCOCC3)nc2-c2ccccc2)c(C)c1 | inactive |
| CCOCCOC(=O)C1=C(C)NC2=C(C(=O)CC(c3cccs3)C2)C1c1ccsc1 (stereo not given) | inactive |
| O=C(O)c1ccccc1N=Nc1c(O)[nH]c2ccc([N+](=O)[O-])cc12 | inactive |
